# System: BV-2
# Assay Text: Antiinflammatory activity in LPS induced mouse BV-2 cells assessed as NO production at 10 uM by Griess reagent based assay relative to control
Listed next: entries and their corresponding level, % of control at 10 µM.
Note: unit % is implicit; provide only the numeric part.

Worked examples follow.
>>> obs_value("COc1c2n(cc(C(=O)Nc3cccc(-c4cn(-c5ccccc5I)nn4)c3)c1=O)C[C@@H]1OCC[C@@H](C)N1C2=O")
52.1
>>> obs_value("COc1c2n(cc(C(=O)Nc3ccccc3-c3cn(-c4ccc(C(F)(F)F)cc4)nn3)c1=O)C[C@@H]1OCC[C@@H](C)N1C2=O")
84.7
>>> obs_value("COc1c2n(cc(C(=O)Nc3cccc(-c4cn(-c5ccccc5)nn4)c3)c1=O)C[C@H]1OC[C@H](C)N1C2=O")
132
>>> obs_value("COc1c2n(cc(C(=O)Nc3cccc(-c4cn(-c5cc(C(F)(F)F)cc(C(F)(F)F)c5)nn4)c3)c1=O)C[C@H]1OC[C@H](C)N1C2=O")
97.9
>>> obs_value("C[C@@H]1C[C@H]2[C@@H]3CCC4=CC(=O)C=C[C@]4(C)[C@@]3(F)[C@@H](O)C[C@]2(C)[C@@]1(O)C(=O)CO")
65

Could you now look at the following molecule, please?
So for "COc1c2n(cc(C(=O)Nc3cccc(-c4cn(-c5ccccc5Cl)nn4)c3)c1=O)C[C@H]1OC[C@H](C)N1C2=O" , the logged level, % of control at 10 µM turned out to be 59.4

----------
# Assay Text: Cytotoxicity against mouse BV-2 cells assessed as cell viability at 1 uM by MTT assay relative to control
# Type: toxicity, cell-based
# Run Conditions: read-out: Activity
Measured Attribute: viability at 1 µM

Worked examples follow.
>>> obs_value("COc1c2n(cc(C(=O)Nc3ccc(-c4cn(-c5c(C)cc(C)cc5C)nn4)cc3)c1=O)C[C@@H]1OCC[C@@H](C)N1C2=O")
"106%"
>>> obs_value("COc1c2n(cc(C(=O)Nc3ccccc3-c3cn(-c4c(C)cc(C)cc4C)nn3)c1=O)C[C@@H]1OCC[C@@H](C)N1C2=O")
"107%"
>>> obs_value("COc1c2n(cc(C(=O)Nc3cccc(-c4cn(-c5cccc(C(F)(F)F)c5)nn4)c3)c1=O)C[C@@H]1OCC[C@@H](C)N1C2=O")
"47.1%"

Could you now look at the following compound, please?
So for "COc1c2n(cc(C(=O)Nc3ccccc3-c3cn(-c4ccc(C(F)(F)F)cc4)nn3)c1=O)C[C@@H]1OCC[C@@H](C)N1C2=O" , the logged viability at 1 µM turned out to be 104%

----------
# System: BV-2
# Assay Text: Antiinflammatory activity in LPS induced mouse BV-2 cells assessed as NO production at 1 uM by Griess reagent based assay relative to control
Listed next: entries and their corresponding level, % of control at 1 µM.
The answer consists of two parts: a number and, after it, its unit.

Worked examples follow.
>>> obs_value("COc1c2n(cc(C(=O)Nc3ccccc3-c3cn(-c4ccc(C(F)(F)F)cc4)nn3)c1=O)C[C@@H]1OCC[C@@H](C)N1C2=O")
"81%"
>>> obs_value("CCc1ccccc1-n1cc(-c2cccc(NC(=O)c3cn4c(c(OC)c3=O)C(=O)N3[C@@H](C)CO[C@@H]3C4)c2)nn1")
"107%"
>>> obs_value("COc1c2n(cc(C(=O)Nc3cccc(-c4cn(-c5ccccc5C(F)(F)F)nn4)c3)c1=O)C[C@@H]1OCC[C@@H](C)N1C2=O")
"91.5%"
>>> obs_value("COc1c2n(cc(C(=O)Nc3ccc(-c4cn(-c5ccc(F)cc5)nn4)cc3)c1=O)C[C@@H]1OCC[C@@H](C)N1C2=O")
"91.9%"

level, % of control at 1 µM of "COc1c2n(cc(C(=O)Nc3cccc(-c4cn(-c5cc(C(F)(F)F)cc(C(F)(F)F)c5)nn4)c3)c1=O)C[C@@H]1OCC[C@@H](C)N1C2=O" , assay on BV-2, is 81.6%

level, % of control at 1 µM of "COc1c2n(cc(C(=O)Nc3cccc(-c4cn(-c5ccccc5)nn4)c3)c1=O)C[C@H]1OC[C@H](C)N1C2=O" , assay on BV-2, is 127%

level, % of control at 1 µM of "COc1c2n(cc(C(=O)Nc3cccc(-c4cn(-c5ccccc5Cl)nn4)c3)c1=O)C[C@H]1OC[C@H](C)N1C2=O" , assay on BV-2, is 106%
